test system: Enterococcus faecalis; experiment: Antibacterial activity against gram-positive Enterococcus faecalis EFs327 harboring tet(M) by CLSI method; type: functional
Attribute measured: MIC (µg/mL)
Numeric only. Scale: µg/mL

Some solved cases for reference:
{"Compound": "CN(C)[C@@H]1C(O)=C(C(N)=O)C(=O)[C@@]2(O)C(O)=C3C(=O)c4c(O)cc(C5CCCN5)c(OC(F)(F)F)c4C[C@H]3C[C@@H]12 (stereo partly specified)", "Tgt": "Enterococcus faecalis", "Units text": "µg/mL", "MIC": 1}
{"Compound": "CC(C)N1CCC[C@H]1c1cc(O)c2c(c1C(F)(F)F)C[C@H]1C[C@H]3[C@H](N(C)C)C(O)=C(C(N)=O)C(=O)[C@@]3(O)C(O)=C1C2=O", "Tgt": "Enterococcus faecalis", "Units text": "µg/mL", "MIC": 0.5}
{"Compound": "COc1c(C2CCCN2)cc(O)c2c1C[C@H]1C[C@H]3[C@H](N(C)C)C(O)=C(C(N)=O)C(=O)[C@@]3(O)C(O)=C1C2=O (stereo partly specified)", "Tgt": "Enterococcus faecalis", "Units text": "µg/mL", "MIC": 32}

Reported MIC ( `CN(C)[C@@H]1C(O)=C(C(N)=O)C(=O)[C@@]2(O)C(O)=C3C(=O)c4c(O)cc([C@H]5CCCN5)c(C(F)(F)F)c4C[C@H]3C[C@@H]12` ) = 16

Reported MIC ( CC1CCNC1c1cc(O)c2c(c1C(F)(F)F)C[C@H]1C[C@H]3[C@H](N(C)C)C(O)=C(C(N)=O)C(=O)[C@@]3(O)C(O)=C1C2=O (stereo partly specified) ) = 1

Reported MIC ( `CCN1CCC[C@H]1c1cc(O)c2c(c1C(F)(F)F)C[C@H]1C[C@H]3[C@H](N(C)C)C(O)=C(C(N)=O)C(=O)[C@@]3(O)C(O)=C1C2=O` ) = 0.5

Reported MIC ( `CN(C)c1cc(NC(=O)CNC(C)(C)C)c(O)c2c1C[C@H]1C[C@H]3[C@H](N(C)C)C(O)=C(C(N)=O)C(=O)[C@@]3(O)C(O)=C1C2=O` ) = 0.125

Reported MIC ( `CCCN1CCC[C@H]1c1cc(O)c2c(c1C(F)(F)F)C[C@H]1C[C@H]3[C@H](N(C)C)C(O)=C(C(N)=O)C(=O)[C@@]3(O)C(O)=C1C2=O` ) = 1

Reported MIC ( CC1CCC(c2cc(O)c3c(c2C(F)(F)F)C[C@H]2C[C@H]4[C@H](N(C)C)C(O)=C(C(N)=O)C(=O)[C@@]4(O)C(O)=C2C3=O)N1 (stereo partly specified) ) = 1
